# Tested on: Hepatitis C virus
# test.name: Antiviral activity against Hepatitis C virus 1b con1 infected in human hepatoma cells assessed as decrease in replicon RNA level after 3 days by RT-PCR analysis
# Type: functional, organism-based, Hepacivirus hominis
# cond: Con1, 72 h
pEC50: −log10 of the molar value.
Some compounds, each annotated with its measured pEC50.
observable: pEC50

[[record]]
chemical_string = "CNc1nc(Cl)c(-c2cc3cc(OC)nc(C)c3o2)c(N[C@@H]2C[C@H](CO)[C@@H](O)[C@H]2O)n1"
system_under_test = "Hepatitis C virus"
prefix_operator = "="
experimental_result = 7.70

[[record]]
chemical_string = "Nc1nc(Cl)c(-c2cc3cnccc3o2)c(N[C@@H]2C[C@H](CO)[C@@H](O)[C@H]2O)n1"
system_under_test = "Hepatitis C virus"
prefix_operator = "="
experimental_result = 5.77

[[record]]
chemical_string = "CCc1cc2cc(-c3c(C)nc(NCc4cc(OC)cc(OC)c4)nc3N[C@@H]3C[C@H](CO)[C@@H](O)[C@H]3O)oc2cn1"
system_under_test = "Hepatitis C virus"
prefix_operator = "="
experimental_result = 8.52

[[record]]
chemical_string = "CNc1nc(C)c(-c2cc3cc(OC)nc(C)c3o2)c(N[C@@H]2C[C@H](CO)[C@@H](O)[C@H]2O)n1"
system_under_test = "Hepatitis C virus"
prefix_operator = "="
experimental_result = 7.22

[[record]]
chemical_string = "Cc1cc2cc(-c3c(Cl)nc(N)nc3N[C@@H]3C[C@H](CO)[C@@H](O)[C@H]3O)oc2cn1"
system_under_test = "Hepatitis C virus"
prefix_operator = "="
experimental_result = 7.52

[[record]]
chemical_string = "CCc1cc2cc(-c3c(Cl)nc(N)nc3N[C@@H]3C[C@H](CO)[C@@H](O)[C@H]3O)oc2c(C)n1"
system_under_test = "Hepatitis C virus"
prefix_operator = "="
experimental_result = 8.00

[[record]]
chemical_string = "COc1cc2cc(-c3c(Cl)nc(N)nc3N[C@@H]3C[C@H](CO)[C@@H](O)[C@H]3O)oc2c(C)n1"
system_under_test = "Hepatitis C virus"
prefix_operator = "="
experimental_result = 8.00

[[record]]
chemical_string = "CCCCCNc1nc(C)c(-c2cc3cc(CC)ncc3o2)c(N[C@@H]2C[C@H](CO)[C@@H](O)[C@H]2O)n1"
system_under_test = "Hepatitis C virus"
prefix_operator = "="
experimental_result = 7.52

[[record]]
chemical_string = "CCOc1cc2cc(-c3c(C)nc(NCCOC)nc3N[C@@H]3C[C@H](CO)[C@@H](O)[C@H]3O)oc2c(C)n1"
system_under_test = "Hepatitis C virus"
prefix_operator = "="
experimental_result = 8.05

[[record]]
chemical_string = "Nc1nc(Cl)c(-c2cc3cccnc3o2)c(N[C@@H]2C[C@H](CO)[C@@H](O)[C@H]2O)n1"
system_under_test = "Hepatitis C virus"
prefix_operator = "="
experimental_result = 6.40

[[record]]
chemical_string = "CCc1cc2cc(-c3c(C)nc(NCC(F)(F)F)nc3N[C@@H]3C[C@H](CO)[C@@H](O)[C@H]3O)oc2cn1"
system_under_test = "Hepatitis C virus"
prefix_operator = "="
experimental_result = 7.70

[[record]]
chemical_string = "Nc1nc(Cl)c(-c2cc3ncccc3o2)c(N[C@@H]2C[C@H](CO)[C@@H](O)[C@H]2O)n1"
system_under_test = "Hepatitis C virus"
prefix_operator = "<"
experimental_result = 4.60

[[record]]
chemical_string = "CCc1nc(C)cc2cc(-c3c(Cl)nc(N)nc3N[C@@H]3C[C@H](CO)[C@@H](O)[C@H]3O)oc12"
system_under_test = "Hepatitis C virus"
prefix_operator = "="
experimental_result = 7.52

[[record]]
chemical_string = "COc1cc2cc(-c3c(C)nc(NCC(C)(C)C)nc3N[C@@H]3C[C@H](CO)[C@@H](O)[C@H]3O)oc2c(C)n1"
system_under_test = "Hepatitis C virus"
prefix_operator = "="
experimental_result = 7.40

[[record]]
chemical_string = "Nc1nc(Cl)c(-c2cc3ccncc3o2)c(N[C@@H]2C[C@H](CO)[C@@H](O)[C@H]2O)n1"
system_under_test = "Hepatitis C virus"
prefix_operator = "="
experimental_result = 7.15

[[record]]
chemical_string = "CCc1cc2cc(-c3c(C)nc(NC)nc3N[C@@H]3C[C@H](CO)[C@@H](O)[C@H]3O)oc2cn1"
system_under_test = "Hepatitis C virus"
prefix_operator = "="
experimental_result = 7.52

[[record]]
chemical_string = "CCc1cc2cc(-c3c(Cl)nc(N)nc3N[C@@H]3C[C@H](CO)[C@@H](O)[C@H]3O)oc2c(CC)n1"
system_under_test = "Hepatitis C virus"
prefix_operator = "="
experimental_result = 7.70

[[record]]
chemical_string = "Cc1nccc2cc(-c3c(Cl)nc(N)nc3N[C@@H]3C[C@H](CO)[C@@H](O)[C@H]3O)oc12"
system_under_test = "Hepatitis C virus"
prefix_operator = "="
experimental_result = 6.92

[[record]]
chemical_string = "CCc1cc2cc(-c3c(C)nc(NCCCC(F)(F)F)nc3N[C@@H]3C[C@H](CO)[C@@H](O)[C@H]3O)oc2cn1"
system_under_test = "Hepatitis C virus"
prefix_operator = "="
experimental_result = 7.70

[[record]]
chemical_string = "CCOc1cc2cc(-c3c(C)nc(NCC(C)(C)C)nc3N[C@@H]3C[C@H](CO)[C@@H](O)[C@H]3O)oc2c(C)n1"
system_under_test = "Hepatitis C virus"
prefix_operator = "="
experimental_result = 7.30

[[record]]
chemical_string = "CCOc1cc2cc(-c3c(C)nc(NCc4cc(OC)cc(OC)c4)nc3N[C@@H]3C[C@H](CO)[C@@H](O)[C@H]3O)oc2c(C)n1"
system_under_test = "Hepatitis C virus"
prefix_operator = "="
experimental_result = 8.70

[[record]]
chemical_string = "CCOc1cc2cc(-c3c(C)nc(NCC(F)(F)F)nc3N[C@@H]3C[C@H](CO)[C@@H](O)[C@H]3O)oc2c(C)n1"
system_under_test = "Hepatitis C virus"
prefix_operator = "="
experimental_result = 7.70

[[record]]
chemical_string = "COc1cc(CNc2nc(C)c(-c3cc4cc(OC)nc(C)c4o3)c(N[C@@H]3C[C@H](CO)[C@@H](O)[C@H]3O)n2)cc(OC)c1"
system_under_test = "Hepatitis C virus"
prefix_operator = "="
experimental_result = 8.00

[[record]]
chemical_string = "CCc1cc2cc(-c3c(C)nc(NCC(C)(C)C)nc3N[C@@H]3C[C@H](CO)[C@@H](O)[C@H]3O)oc2cn1"
system_under_test = "Hepatitis C virus"
prefix_operator = "="
experimental_result = 7.52

[[record]]
chemical_string = "Cc1cncc2oc(-c3c(Cl)nc(N)nc3N[C@@H]3C[C@H](CO)[C@@H](O)[C@H]3O)cc12"
system_under_test = "Hepatitis C virus"
prefix_operator = "="
experimental_result = 5.85


###

Some molecules, each annotated with its measured CC50 at 72 h.
# test.name: Cytotoxicity against human hepatoma cells after 3 days by MTS assay
# Format: cell-based
observable: CC50 at 72 h (µM)

[[record]]
chemical_string = "CCc1cc2cc(-c3c(C)nc(NCC(F)(F)F)nc3N[C@@H]3C[C@H](CO)[C@@H](O)[C@H]3O)oc2cn1"
observable = "CC50 at 72 h"
prefix_operator = "="
experimental_result = 15

[[record]]
chemical_string = "COc1cc2cc(-c3c(C)nc(NCC(C)(C)C)nc3N[C@@H]3C[C@H](CO)[C@@H](O)[C@H]3O)oc2c(C)n1"
observable = "CC50 at 72 h"
prefix_operator = "="
experimental_result = 21

[[record]]
chemical_string = "CCc1cc2cc(-c3c(Cl)nc(N)nc3N[C@@H]3C[C@H](CO)[C@@H](O)[C@H]3O)oc2c(C)n1"
observable = "CC50 at 72 h"
prefix_operator = "="
experimental_result = 16

[[record]]
chemical_string = "CCc1cc2cc(-c3c(Cl)nc(N)nc3N[C@@H]3C[C@H](CO)[C@@H](O)[C@H]3O)oc2c(CC)n1"
observable = "CC50 at 72 h"
prefix_operator = "="
experimental_result = 16

[[record]]
chemical_string = "CCc1cc2cc(-c3c(C)nc(NC)nc3N[C@@H]3C[C@H](CO)[C@@H](O)[C@H]3O)oc2cn1"
observable = "CC50 at 72 h"
prefix_operator = ">"
experimental_result = 25

[[record]]
chemical_string = "CCCCCNc1nc(C)c(-c2cc3cc(CC)ncc3o2)c(N[C@@H]2C[C@H](CO)[C@@H](O)[C@H]2O)n1"
observable = "CC50 at 72 h"
prefix_operator = "="
experimental_result = 3

[[record]]
chemical_string = "Cc1nccc2cc(-c3c(Cl)nc(N)nc3N[C@@H]3C[C@H](CO)[C@@H](O)[C@H]3O)oc12"
observable = "CC50 at 72 h"
prefix_operator = ">"
experimental_result = 25

[[record]]
chemical_string = "CCc1cc2cc(-c3c(Cl)nc(N)nc3N[C@@H]3C[C@H](CO)[C@@H](O)[C@H]3O)oc2cn1"
observable = "CC50 at 72 h"
prefix_operator = "="
experimental_result = 22

[[record]]
chemical_string = "CCc1nc(C)cc2cc(-c3c(Cl)nc(N)nc3N[C@@H]3C[C@H](CO)[C@@H](O)[C@H]3O)oc12"
observable = "CC50 at 72 h"
prefix_operator = "="
experimental_result = 20

[[record]]
chemical_string = "Nc1nc(Cl)c(-c2cc3ccncc3o2)c(N[C@@H]2C[C@H](CO)[C@@H](O)[C@H]2O)n1"
observable = "CC50 at 72 h"
prefix_operator = "="
experimental_result = 25

[[record]]
chemical_string = "Cc1cncc2oc(-c3c(Cl)nc(N)nc3N[C@@H]3C[C@H](CO)[C@@H](O)[C@H]3O)cc12"
observable = "CC50 at 72 h"
prefix_operator = ">"
experimental_result = 25

[[record]]
chemical_string = "CCOc1cc2cc(-c3c(C)nc(NCC(C)(C)C)nc3N[C@@H]3C[C@H](CO)[C@@H](O)[C@H]3O)oc2c(C)n1"
observable = "CC50 at 72 h"
prefix_operator = "="
experimental_result = 23

[[record]]
chemical_string = "CCOc1cc2cc(-c3c(C)nc(NCCOC)nc3N[C@@H]3C[C@H](CO)[C@@H](O)[C@H]3O)oc2c(C)n1"
observable = "CC50 at 72 h"
prefix_operator = ">"
experimental_result = 25

[[record]]
chemical_string = "COc1cc2cc(-c3c(Cl)nc(N)nc3N[C@@H]3C[C@H](CO)[C@@H](O)[C@H]3O)oc2c(C)n1"
observable = "CC50 at 72 h"
prefix_operator = "="
experimental_result = 25

[[record]]
chemical_string = "CCc1cc2cc(-c3c(C)nc(NCCCC(F)(F)F)nc3N[C@@H]3C[C@H](CO)[C@@H](O)[C@H]3O)oc2cn1"
observable = "CC50 at 72 h"
prefix_operator = ">"
experimental_result = 25

[[record]]
chemical_string = "CCOc1cc2cc(-c3c(C)nc(NCC(F)(F)F)nc3N[C@@H]3C[C@H](CO)[C@@H](O)[C@H]3O)oc2c(C)n1"
observable = "CC50 at 72 h"
prefix_operator = ">"
experimental_result = 25


Origin of values: ChEMBL document CHEMBL2057163
